This collection of values is drawn from patent US20120219562A1.

Reported koff is given for each of the following binders.
# MEASURED ON: T1, human interleukin 12 (human, UniProt P29459 23-219; P29460 23-328)
# T1 construct: heterodimer of p35 and p40 linked by a disulfide bridge; also called hIL-12; IL-12
# T1 sequence (looked up) 1: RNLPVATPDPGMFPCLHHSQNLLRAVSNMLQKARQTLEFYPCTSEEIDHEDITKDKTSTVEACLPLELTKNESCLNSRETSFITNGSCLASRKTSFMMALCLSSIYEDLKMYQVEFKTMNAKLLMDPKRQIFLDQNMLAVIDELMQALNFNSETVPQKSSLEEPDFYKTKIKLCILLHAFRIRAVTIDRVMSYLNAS
# T1 sequence (looked up) 2: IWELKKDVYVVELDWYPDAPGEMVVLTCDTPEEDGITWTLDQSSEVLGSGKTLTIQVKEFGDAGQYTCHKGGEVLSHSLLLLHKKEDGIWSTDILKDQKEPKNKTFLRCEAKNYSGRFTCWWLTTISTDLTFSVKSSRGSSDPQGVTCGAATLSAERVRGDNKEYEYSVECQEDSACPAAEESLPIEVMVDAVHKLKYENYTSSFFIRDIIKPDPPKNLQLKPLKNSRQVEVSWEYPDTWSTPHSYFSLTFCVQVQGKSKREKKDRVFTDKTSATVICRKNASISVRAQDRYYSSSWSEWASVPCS
# MEASUREMENT PROTOCOL: SPR (BIAcore)

| BINDER | koff |
| --- | --- |
| M2 A5 (antibody, V domains shown) VH: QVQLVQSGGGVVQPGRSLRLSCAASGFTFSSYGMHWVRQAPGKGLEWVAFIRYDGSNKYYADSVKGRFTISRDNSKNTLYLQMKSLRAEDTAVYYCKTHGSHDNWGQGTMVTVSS VL: SYVLTQPPSVSGTPGQRVTISCSGGRSNIGSNTVKWYQQLPGTAPKLLIYGNDQRPSGVPDRFSGSKSGTSASLAITGVQAEDEADYYCQSYDIGSTGSRVFGTGTKVTVLG | 0.0401 s⁻¹ |
| 73-H3 (antibody, V domains shown) VH: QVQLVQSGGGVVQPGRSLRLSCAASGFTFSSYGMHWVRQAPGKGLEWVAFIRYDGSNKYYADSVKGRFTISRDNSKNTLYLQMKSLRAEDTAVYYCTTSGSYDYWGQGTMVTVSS VL: SYVLTQPPSVSGTPGQRVTISCSGGRSNIGSNTVKWYQQLPGTAPKLLIYGNDQRPSGVPDRFSGSKSGTSASLAITGVQAEDEADYYCHSYDNGFTGSRVFGTGTKVTVLG | 0.00685 s⁻¹ |
| C10 (antibody, V domains shown) VH: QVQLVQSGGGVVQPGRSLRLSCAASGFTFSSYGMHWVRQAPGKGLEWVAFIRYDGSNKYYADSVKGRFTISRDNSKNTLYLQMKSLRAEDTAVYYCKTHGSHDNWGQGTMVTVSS VL: SYVLTQPPSVSGTPGQRVTISCSGGRSNIGSNTVKWYQQLPGTAPKLLIYGNDQRPSGVPDRFSGSKSGTSASLAITGVQAEDEADYYCQSYDRGNSPIPTFGTGTKVTVLG | 0.0031 s⁻¹ |
| 73-F5 (antibody, V domains shown) VH: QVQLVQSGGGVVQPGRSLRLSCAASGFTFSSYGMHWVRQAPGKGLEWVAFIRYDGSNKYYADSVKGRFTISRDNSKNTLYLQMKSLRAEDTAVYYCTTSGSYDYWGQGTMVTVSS VL: SYVLTQPPSVSGTPGQRVTISCSGGRSNIGSNTVKWYQQLPGTAPKLLIYGNDQRPSGVPDRFSGSKSGTSASLAITGVQAEDEADYYCQSYDSDFTGSKVFGTGTKVTVLG | 0.00374 s⁻¹ |
| 170-21 (antibody, V domains shown) VH: QVQLVQSGGGVVQPGRSLRLSCAASGFTFSSYGMHWVRQAPGKGLEWVAFIRYDGSNKYYADSVKGRFTISRDNSKNTLYLQMKSLRAEDTAVYYCTTHGSQDNWGQGTMVTVSS VL: SYVLTQPPSVSGTPGQRVTISCSGGRSNIGSNTVKWYQQLPGTAPKLLIYGNDQRPSGVPDRFSGSKSGTSASLAITGVQAEDEADYYCQSYDRGFTGPRLFGTGTKVTVL | 0.00389 s⁻¹ |
